# Test system: Setaria viridis (SETVI)
# Measurement Protocol: A. Herbicidal pre-emergence efficacy, SETVI
# Type: in vivo
# Test Settings: dosage 320 g/ha

| Smiles Structure | Scale Unit | Pre-emergence efficacy against SETVI |
| --- | --- | --- |
| O=S(=O)(CCCC(F)(F)F)Oc1c(Br)cccc1Oc1ncc(Cl)cn1 | % | 100 |
| O=S(=O)(CCCC(F)(F)F)Oc1c(Cl)cccc1Oc1ncc(Br)cn1 | % | 90 |
| O=S(=O)(CCCCl)Oc1ccccc1Oc1ncc(F)cn1 | % | 100 |
| Cc1cccc(OS(=O)(=O)CCCCl)c1Oc1ncc(Cl)cn1 | % | 100 |
| O=S(=O)(CCCC(F)(F)F)Oc1c(Cl)cccc1Oc1ncc(Cl)cn1 | % | 100 |

====

# Test system: Echinochloa crus-galli (ECHCG)
# Measurement Protocol: A. Herbicidal pre-emergence efficacy, ECHCG
# Assay type: in vivo
# Test Settings: 320 g/ha; scored visually after about 3 weeks vs untreated controls
Value Kind: Pre-emergence efficacy against ECHCG (%)

| Molecule | Value Kind | Scale Unit | Endpoint Value |
| --- | --- | --- | --- |
| O=S(=O)(CCCC(F)(F)F)Oc1c(F)cccc1Oc1ncc(F)cn1 | Pre-emergence efficacy against ECHCG | % | 100 |
| O=S(=O)(CC1CC1)Oc1ccccc1Oc1ncc(Cl)cn1 | Pre-emergence efficacy against ECHCG | % | 90 |
| O=S(=O)(CC1CCCO1)Oc1c(F)cccc1Oc1ncc(Cl)cn1 (stereo not shown) | Pre-emergence efficacy against ECHCG | % | 100 |
| CC(C)CS(=O)(=O)Oc1ccccc1Oc1ncc(Cl)cn1 | Pre-emergence efficacy against ECHCG | % | 100 |
| Cc1cccc(Oc2ncc(Cl)cn2)c1OS(=O)(=O)CCC(F)(F)F | Pre-emergence efficacy against ECHCG | % | 100 |
| Cc1cccc(Oc2ncc(Cl)cn2)c1OS(=O)(=O)CC1CC(F)(F)C1 | Pre-emergence efficacy against ECHCG | % | 90 |
| O=S(=O)(CCCCl)Oc1ccccc1Oc1ncc(Cl)cn1 | Pre-emergence efficacy against ECHCG | % | 100 |
| O=S(=O)(CCC(F)(F)F)Oc1c(F)cccc1Oc1ncc(F)cn1 | Pre-emergence efficacy against ECHCG | % | 100 |
| O=S(=O)(CCC(F)(F)F)Oc1c(Br)cccc1Oc1ncc(F)cn1 | Pre-emergence efficacy against ECHCG | % | 100 |
| Cc1cccc(Oc2ncc(Cl)cn2)c1OS(=O)(=O)CCCC(F)(F)F | Pre-emergence efficacy against ECHCG | % | 100 |
| O=S(=O)(CC1CC(F)(F)C1)Oc1c(F)cccc1Oc1ncc(Cl)cn1 | Pre-emergence efficacy against ECHCG | % | 100 |
| O=S(=O)(CCCC(F)F)Oc1c(F)cccc1Oc1ncc(Cl)cn1 | Pre-emergence efficacy against ECHCG | % | 100 |
| O=S(=O)(CCCCl)Oc1ccccc1Oc1ncc(F)cn1 | Pre-emergence efficacy against ECHCG | % | 100 |
| Cc1cccc(Oc2ncc(Br)cn2)c1OS(=O)(=O)CCC(F)(F)F | Pre-emergence efficacy against ECHCG | % | 100 |
| O=S(=O)(CCC(F)(F)F)Oc1c(Cl)cccc1Oc1ncc(Cl)cn1 | Pre-emergence efficacy against ECHCG | % | 90 |
| Cc1cccc(OS(=O)(=O)CCCCl)c1Oc1ncc(Cl)cn1 | Pre-emergence efficacy against ECHCG | % | 90 |
| O=S(=O)(CCCC(F)(F)F)Oc1c(F)cccc1Oc1ncc(Br)cn1 | Pre-emergence efficacy against ECHCG | % | 100 |
| CCC(C)S(=O)(=O)Oc1ccccc1Oc1ncc(Cl)cn1 (stereo not shown) | Pre-emergence efficacy against ECHCG | % | 90 |
| COCCS(=O)(=O)Oc1c(F)cccc1Oc1ncc(Cl)cn1 | Pre-emergence efficacy against ECHCG | % | 90 |
